System: human RBCs
test-summary: Hemolysis of human RBCs
Type: cell-based
Square brackets hold non-standard residues; d marks the D form. Peptide text beside a SMILES is read from it. βAla = NCCC(=O)O
I'd appreciate it if you could supply Hemolysis at 100 μM values for the items below.
Give the value as a plain number.

Prompt line: # get_value(readout='Hemolysis at 100 μM', item= CC(C)C[C@H](NC(=O)[C@H](CCCNC(=N)N)NC(=O)[C@H](CCCNC(=N)N)NC(=O)[C@H](C)NC(=O)[C@H](Cc1c[nH]c2ccccc12)NC(=O)[C@H](CCCNC(=N)N)NC(=O)[C@H](N)CCCNC(=N)N)C(=O)N[C@@H](C)C(=O)N[C@@H](Cc1ccccc1)C(=O)N[C@@H](C)C(=O)N[C@@H](Cc1ccccc1)C(=O)N[C@@H](CCCNC(=N)N)C(=O)N[C@H](CCCNC(=N)N)C(N)=O [L-CONGA-D(R1, R13)] (H-[dR]RWARRLAFAFR[dR]-NH2) )
Response line: 0.01

Prompt line: Next compound: CC(C)C[C@@H](NC(=O)CCNC(=O)[C@@H](CCCNC(=N)N)NC(=O)[C@@H](CCCNC(=N)N)NC(=O)[C@@H](C)NC(=O)[C@@H](Cc1c[nH]c2ccccc12)NC(=O)[C@@H](CCCNC(=N)N)NC(=O)[C@H](N)CCCNC(=N)N)C(=O)N[C@H](C)C(=O)N[C@H](Cc1ccccc1)C(=O)N[C@H](C)C(=O)N[C@H](Cc1ccccc1)C(=O)N[C@H](CCCNC(=N)N)C(=O)N[C@H](CCCNC(=N)N)C(N)=O [D-CONGA-βa7, rrwarr-βa-lafafrr (All D)] (H-[dR][dR][dW][dA][dR][dR][βAla][dL][dA][dF][dA][dF][dR][dR]-NH2)
Response line: 0.02

###

Task for the reader: assign each of the following molecules its reported MIC, S. aureus, No RBC.
Test system: S. aureus
Assay type: cell-based
measurement-conditions: no RBC; Table 2
Square brackets hold non-standard residues; d marks the D form. Peptide text beside a SMILES is read from it. d(hArg) = N=C(N)NCCCC[C@@H](N)C(=O)O
Give just the number in µM; leave the unit off.

Prompt line: What value of measured MIC, S. aureus, No RBC is listed for CC(C)C[C@H](NC(=O)[C@H](CCCNC(=N)N)NC(=O)[C@H](CCCNC(=N)N)NC(=O)[C@H](C)NC(=O)[C@H](Cc1c[nH]c2ccccc12)NC(=O)[C@H](CCCNC(=N)N)NC(=O)[C@H](N)CCCNC(=N)N)C(=O)N[C@@H](C)C(=O)N[C@@H](Cc1ccccc1)C(=O)N[C@@H](C)C(=O)N[C@@H](Cc1ccccc1)C(=O)N[C@@H](CCCNC(=N)N)C(=O)N[C@H](CCCNC(=N)N)C(N)=O [L-CONGA-D(R1, R13)] (H-[dR]RWARRLAFAFR[dR]-NH2) ?
Response line: 30

Prompt line: Repeat for the following molecule: CC(C)C[C@@H](NC(=O)[C@@H](CCCCNC(=N)N)NC(=O)[C@@H](CCCCNC(=N)N)NC(=O)[C@@H](C)NC(=O)[C@@H](Cc1c[nH]c2ccccc12)NC(=O)[C@@H](CCCNC(=N)N)NC(=O)[C@H](N)CCCNC(=N)N)C(=O)N[C@H](C)C(=O)N[C@H](Cc1ccccc1)C(=O)N[C@H](C)C(=O)N[C@H](Cc1ccccc1)C(=O)N[C@H](CCCNC(=N)N)C(=O)N[C@H](CCCNC(=N)N)C(N)=O [D-CONGA-HomoR, rrwa (homo r, homo r)lafafrr] (H-[dR][dR][dW][dA][d(hArg)][d(hArg)][dL][dA][dF][dA][dF][dR][dR]-NH2)
Response line: 1.7

Prompt line: Also, CC(C)C[C@@H](NC(=O)[C@@H](CCCNC(=N)N)NC(=O)[C@H](N)CCCNC(=N)N)C(=O)N[C@H](C)C(=O)N[C@H](Cc1ccccc1)C(=O)N[C@H](C)C(=O)N[C@H](Cc1ccccc1)C(=O)N[C@H](Cc1c[nH]c2ccccc12)C(=O)N[C@H](C)C(=O)N[C@H](CCCNC(=N)N)C(=O)N[C@H](CCCNC(=N)N)C(=O)N[C@H](CCCNC(=N)N)C(=O)N[C@H](CCCNC(=N)N)C(N)=O [D-CONGA-FLIP, rrlafafwarrrr (All D)] (H-[dR][dR][dL][dA][dF][dA][dF][dW][dA][dR][dR][dR][dR]-NH2) please.
Response line: 1.7

Prompt line: Thanks! And CC(C)C[C@@H](NC(=O)[C@@H](CCCNC(=N)N)NC(=O)[C@@H](CCCNC(=N)N)NC(=O)[C@@H](Cc1c[nH]c2ccccc12)NC(=O)[C@@H](CCCNC(=N)N)NC(=O)[C@H](N)CCCNC(=N)N)C(=O)N[C@H](C)C(=O)N[C@H](Cc1ccccc1)C(=O)N[C@H](C)C(=O)N[C@H](Cc1ccccc1)C(=O)N[C@H](CCCNC(=N)N)C(=O)N[C@H](CCCNC(=N)N)C(N)=O [D-CONGA-ΔA4, rrwrrlafafrr (All D)] (H-[dR][dR][dW][dR][dR][dL][dA][dF][dA][dF][dR][dR]-NH2) ?
Response line: 3.2

Prompt line: Moving on to the next molecule: CC(C)C[C@@H](NC(=O)[C@@H](CCCNC(=N)N)NC(=O)[C@@H](CCCNC(=N)N)NC(=O)[C@@H](C)NC(=O)[C@@H](Cc1c[nH]c2ccccc12)NC(=O)[C@@H](CCCNC(=N)N)NC(=O)[C@H](N)CCCNC(=N)N)C(=O)N[C@H](C)C(=O)N[C@H](Cc1ccccc1)C(=O)N[C@H](C)C(=O)N[C@H](Cc1ccccc1)C(=O)N[C@H](CCCNC(=N)N)C(=O)N[C@H](CCCNC(=N)N)C(N)=O [D-CONGA, rrwarrlafafrr (All D), reference compound] (H-[dR][dR][dW][dA][dR][dR][dL][dA][dF][dA][dF][dR][dR]-NH2)
Response line: 5.7
